Biological target: T1, cyno activated protein C (cyno (monkey))
T1 construct: also called cyno aPC; cyno APC
Experiment: SPR (Biacore), 1:1 binding model
propertyName: kon (M⁻¹ s⁻¹)
Quick note: give the figure in M⁻¹ s⁻¹, leave out the unit.

binder="Hu1573-13 (antibody, V domains shown, Humanized IgG, human gamma 1 / kappa constant regions by vectors pCP-hCg1 and pCP-hck; also called H1573VH.1E + H1573Vk.2A) VH: EVQLVESGGGLVQPGGSLRLSCAASGFTFSNYYLNWVRQAPGKGLEWVADIRLKSNNYEKHYAESVKGRFTISRDDSKNSVYLQMNSLKTEDTAVYYCIREGDYFDYWGQGTTVTVSS VL: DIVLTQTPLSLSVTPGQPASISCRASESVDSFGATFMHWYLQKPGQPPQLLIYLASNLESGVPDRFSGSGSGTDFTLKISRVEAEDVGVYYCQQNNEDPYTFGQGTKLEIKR" propertyname=kon testvalue=229000
binder="1573 Chimeric (antibody, V domains shown, IgG; also called chimera 1573; 1573VH (chimeric) + 1573Vk (chimeric)) VH: EVKLEESGGGLVQPGGSMKLSCVASGFTFSNYYLNWVRQSPEKGLEWVADIRLKSNNYEKHYAESVKGRFTISRDDSKSSVYLQMNNLRAEDTGIYYCIREGDYFDYWGQGTTLTVSS VL: NIVLTQSPASLAVSLGQRATISCRASESVDSFGATFMHWYQQKPGQPPKLLIYLASNLESGVPARFSGSGSRTDFTLTIDPVEADDAATYYCQQNNEDPYTFGGGTKLEIKR" propertyname=kon testvalue=555000
binder="Hu1573-15 (antibody, V domains shown, Humanized IgG, human gamma 1 / kappa constant regions by vectors pCP-hCg1 and pCP-hck; also called H1573VH.1F + H1573Vk.2) VH: EVQLVESGGGLVQPGGSLRLSCAASGFTFSNYYLNWVRQAPGKGLEWVADIRLKSNNYEKHYAESVKGRFTISRDDSKSSVYLQMNSLKTEDTAVYYCIREGDYFDYWGQGTTVTVSS VL: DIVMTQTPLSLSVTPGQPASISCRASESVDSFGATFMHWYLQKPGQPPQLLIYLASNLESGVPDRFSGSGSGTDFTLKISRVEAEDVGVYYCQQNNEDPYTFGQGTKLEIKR" propertyname=kon testvalue=225000
binder="Hu1573-12 (antibody, V domains shown, Humanized IgG, human gamma 1 / kappa constant regions by vectors pCP-hCg1 and pCP-hck; also called H1573VH.1E + H1573Vk.2) VH: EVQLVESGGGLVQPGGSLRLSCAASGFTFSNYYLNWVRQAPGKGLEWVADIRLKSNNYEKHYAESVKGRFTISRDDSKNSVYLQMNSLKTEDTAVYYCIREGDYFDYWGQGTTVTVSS VL: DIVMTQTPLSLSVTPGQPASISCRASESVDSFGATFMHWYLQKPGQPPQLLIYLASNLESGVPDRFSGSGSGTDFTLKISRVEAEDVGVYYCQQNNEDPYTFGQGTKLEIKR" propertyname=kon testvalue=337000
binder="Hu1573-8 (antibody, V domains shown, Humanized IgG, human gamma 1 / kappa constant regions by vectors pCP-hCg1 and pCP-hck; also called H1573VH.1C + H1573Vk.2B) VH: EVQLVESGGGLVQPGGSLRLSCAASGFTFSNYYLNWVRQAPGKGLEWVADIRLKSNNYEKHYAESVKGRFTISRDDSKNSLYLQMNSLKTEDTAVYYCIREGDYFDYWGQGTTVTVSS VL: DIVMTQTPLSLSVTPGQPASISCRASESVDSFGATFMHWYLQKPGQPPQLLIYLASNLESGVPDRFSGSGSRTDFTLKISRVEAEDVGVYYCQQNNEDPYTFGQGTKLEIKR" propertyname=kon testvalue=363000
binder="Hu1573-11 (antibody, V domains shown, Humanized IgG, human gamma 1 / kappa constant regions by vectors pCP-hCg1 and pCP-hck; also called H1573VH.1D + H1573Vk.2B) VH: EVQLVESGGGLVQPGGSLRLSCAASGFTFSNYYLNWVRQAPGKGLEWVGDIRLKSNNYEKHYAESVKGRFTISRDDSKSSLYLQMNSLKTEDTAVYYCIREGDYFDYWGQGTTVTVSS VL: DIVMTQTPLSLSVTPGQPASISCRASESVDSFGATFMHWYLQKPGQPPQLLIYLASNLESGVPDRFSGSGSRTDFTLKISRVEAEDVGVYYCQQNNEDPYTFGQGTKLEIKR" propertyname=kon testvalue=269000
binder="Hu1573-3 (antibody, V domains shown, Humanized IgG, human gamma 1 / kappa constant regions by vectors pCP-hCg1 and pCP-hck; also called H1573VH.1B + H1573Vk.2) VH: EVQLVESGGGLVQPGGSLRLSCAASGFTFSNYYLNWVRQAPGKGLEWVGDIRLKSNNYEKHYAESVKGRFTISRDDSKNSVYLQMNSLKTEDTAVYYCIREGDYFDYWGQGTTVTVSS VL: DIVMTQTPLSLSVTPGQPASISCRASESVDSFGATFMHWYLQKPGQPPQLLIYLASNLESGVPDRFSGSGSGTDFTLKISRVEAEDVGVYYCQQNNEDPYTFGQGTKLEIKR" propertyname=kon testvalue=743000
binder="Hu1573-10 (antibody, V domains shown, Humanized IgG, human gamma 1 / kappa constant regions by vectors pCP-hCg1 and pCP-hck; also called H1573VH.1D + H1573Vk.2A) VH: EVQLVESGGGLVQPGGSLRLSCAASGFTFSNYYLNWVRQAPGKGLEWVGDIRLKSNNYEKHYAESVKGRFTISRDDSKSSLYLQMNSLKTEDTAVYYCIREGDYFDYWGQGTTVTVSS VL: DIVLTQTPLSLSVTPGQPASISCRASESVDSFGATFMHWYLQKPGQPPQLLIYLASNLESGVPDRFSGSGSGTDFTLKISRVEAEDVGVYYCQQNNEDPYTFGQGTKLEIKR" propertyname=kon testvalue=434000

(Q) For the binder Hu1573-4 (antibody, V domains shown, Humanized IgG, human gamma 1 / kappa constant regions by vectors pCP-hCg1 and pCP-hck; also called H1573VH.1B + H1573Vk.2A) VH: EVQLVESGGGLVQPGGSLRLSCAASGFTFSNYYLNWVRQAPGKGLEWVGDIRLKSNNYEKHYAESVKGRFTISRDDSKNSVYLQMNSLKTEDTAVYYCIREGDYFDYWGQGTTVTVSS VL: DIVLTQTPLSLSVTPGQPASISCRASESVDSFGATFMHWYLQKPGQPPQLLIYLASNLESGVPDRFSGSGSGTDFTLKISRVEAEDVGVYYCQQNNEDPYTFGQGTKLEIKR , what kon is on record?
(A) 743000

(Q) Can you share its kon? I mean this binder: Hu1573-2 (antibody, V domains shown, Humanized IgG, human gamma 1 / kappa constant regions by vectors pCP-hCg1 and pCP-hck; also called H1573VH.1A + H1573Vk.2C) VH: EVQLVESGGGLVQPGGSLRLSCAASGFTFSNYYLNWVRQAPGKGLEWVGDIRLKSNNYEKHYAESVKGRFTISRDDSKNSLYLQMNSLKTEDTAVYYCIREGDYFDYWGQGTTVTVSS VL: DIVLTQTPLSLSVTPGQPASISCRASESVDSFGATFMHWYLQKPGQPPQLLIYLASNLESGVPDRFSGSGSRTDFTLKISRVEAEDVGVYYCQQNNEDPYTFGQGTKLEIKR
(A) 235000
